- EXPERIMENTAL_TARGET: α4β7 integrin (Homo sapiens, UniProt P13612+P26010)
- Construct: monitoring the capture of α4β7 integrin expressing cells on a recombinant MadCAM-1 extracellular domain-coated plate; endogenous in cells; host or cells: RPMI8866 cells
- Sequence (P13612 34-1032): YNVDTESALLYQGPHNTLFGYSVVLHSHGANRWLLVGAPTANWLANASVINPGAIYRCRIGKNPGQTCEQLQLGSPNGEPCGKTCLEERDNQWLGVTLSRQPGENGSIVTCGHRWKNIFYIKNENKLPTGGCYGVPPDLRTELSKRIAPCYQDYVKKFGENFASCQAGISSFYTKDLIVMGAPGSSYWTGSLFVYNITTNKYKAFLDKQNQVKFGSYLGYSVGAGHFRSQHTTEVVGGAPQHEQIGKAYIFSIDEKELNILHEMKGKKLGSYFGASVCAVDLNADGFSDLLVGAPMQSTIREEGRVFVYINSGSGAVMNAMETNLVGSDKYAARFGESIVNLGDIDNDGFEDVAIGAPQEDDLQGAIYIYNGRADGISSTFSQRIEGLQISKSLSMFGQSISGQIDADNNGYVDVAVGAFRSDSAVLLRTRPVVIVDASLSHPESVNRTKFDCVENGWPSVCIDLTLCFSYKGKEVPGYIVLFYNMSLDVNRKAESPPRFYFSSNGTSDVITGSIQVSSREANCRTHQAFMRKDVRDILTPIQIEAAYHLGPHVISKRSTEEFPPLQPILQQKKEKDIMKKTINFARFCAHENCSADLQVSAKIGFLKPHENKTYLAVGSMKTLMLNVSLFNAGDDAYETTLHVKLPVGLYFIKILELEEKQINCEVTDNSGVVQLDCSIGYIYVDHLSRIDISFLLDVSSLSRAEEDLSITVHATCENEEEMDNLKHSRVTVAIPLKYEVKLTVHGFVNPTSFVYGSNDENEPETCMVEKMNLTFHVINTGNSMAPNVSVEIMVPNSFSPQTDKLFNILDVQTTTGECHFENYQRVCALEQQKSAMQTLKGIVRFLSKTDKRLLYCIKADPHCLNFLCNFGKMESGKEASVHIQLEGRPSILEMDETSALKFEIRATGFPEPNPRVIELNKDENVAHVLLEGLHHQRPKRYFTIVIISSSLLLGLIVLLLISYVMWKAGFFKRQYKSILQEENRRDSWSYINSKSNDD
- Sequence (P26010 20-798): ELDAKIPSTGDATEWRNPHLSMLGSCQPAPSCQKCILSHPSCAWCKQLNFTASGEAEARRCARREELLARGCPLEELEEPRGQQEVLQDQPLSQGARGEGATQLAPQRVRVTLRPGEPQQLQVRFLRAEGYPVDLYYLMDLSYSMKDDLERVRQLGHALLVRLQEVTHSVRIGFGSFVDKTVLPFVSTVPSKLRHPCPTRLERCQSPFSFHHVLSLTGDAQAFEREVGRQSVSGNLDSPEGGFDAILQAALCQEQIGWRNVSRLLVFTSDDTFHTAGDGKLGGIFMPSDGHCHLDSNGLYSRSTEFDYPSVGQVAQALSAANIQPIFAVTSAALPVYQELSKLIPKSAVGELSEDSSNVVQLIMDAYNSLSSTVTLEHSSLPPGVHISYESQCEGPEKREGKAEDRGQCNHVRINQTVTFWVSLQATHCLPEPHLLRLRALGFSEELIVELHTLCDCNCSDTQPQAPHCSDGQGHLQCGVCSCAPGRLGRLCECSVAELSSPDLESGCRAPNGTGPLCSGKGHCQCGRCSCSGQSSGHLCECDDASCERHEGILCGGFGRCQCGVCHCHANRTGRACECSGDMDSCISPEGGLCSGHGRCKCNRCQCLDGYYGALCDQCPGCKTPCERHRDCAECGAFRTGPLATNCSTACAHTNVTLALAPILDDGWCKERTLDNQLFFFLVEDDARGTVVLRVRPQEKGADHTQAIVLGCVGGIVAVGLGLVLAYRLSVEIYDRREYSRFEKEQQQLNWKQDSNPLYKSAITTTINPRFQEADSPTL
- ASSAY_PROTOCOL: α4β7 Integrin Cell Capture Assay
- Assay type: cell-based
- MEASUREMENT_CONTEXT: capture of α4β7 integrin expressing RPMI8866 cells on recombinant MadCAM-1 extracellular domain-coated plate; DMEM+0.5% FBS+0.5 mM MnCl2; read-out: EC50 α4β7
- Procedure: α4β7 Integrin Cell Capture Assay The potency of inhibitors in preventing α4β7 integrin interaction with MadCAM-1 was measured by monitoring the capture of α4β7 integrin expressing cells on a recombinant MadCAM-1 extracellular domain-coated plate. 384-Well plates (Corning 3702) were coated with MadCAM-1 extracellular domain by dispensing 20 μL of MAdCAM-1 at 1.0 μg/mL per well and incubating overnight at 4° C. […]
MEASURE_NAME: pEC50
# pEC50 = -log10(concentration in molar units)

Here is how some molecules turned out for pEC50.
# MOLECULE, EXPERIMENTAL_TARGET, RECORDED_MEASUREMENT
data = [
    ("Cc1c(-c2ccc(C[C@H](NC(=O)c3c(F)cccc3F)C(=O)O)c3ccccc23)c(=O)n(C)c2ccccc12 (single isomer, unassigned) [Example 119]", "α4β7 integrin (Homo sapiens, UniProt P13612+P26010)", 7.08),
    ("COc1cccc(F)c1C(=O)N[C@@H](Cc1ccc(-c2c(Cl)cc(F)cc2Cl)c2cccnc12)C(=O)O [Example 2]", "α4β7 integrin (Homo sapiens, UniProt P13612+P26010)", 6.38),
    ("Cc1c(-c2ccc(C[C@H](NC(=O)c3c(Cl)cccc3Cl)C(=O)O)c3ccccc23)c(=O)n(C)c(=O)n1C (single isomer, unassigned) [Example 109]", "α4β7 integrin (Homo sapiens, UniProt P13612+P26010)", 8.68),
]

Q: Entry O=C(N[C@@H](Cc1ccc(-c2c(Cl)cc(F)cc2Cl)c2ccccc12)C(=O)O)c1c(Cl)cccc1Cl [Example 107] : reported pEC50 = ?
Ans: 6.86

Q: Repeat for the following molecule: Cn1cc(C(F)(F)F)cc(-c2ccc(C[C@H](NC(=O)c3c(Cl)cccc3Cl)C(=O)O)c3ncccc23)c1=O [Example 23]
Ans: 7.73

Q: Repeat for the following molecule: COc1cnn(C)c(=O)c1-c1ccc(C[C@H](NC(=O)c2c(Cl)cccc2Cl)C(=O)O)c2ncccc12 (single isomer, unassigned) [Example 73]
Ans: 8.08

Q: Repeat for the following molecule: COc1c(F)cc(F)cc1-c1ccc(C[C@H](NC(=O)c2c(Cl)cccc2Cl)C(=O)O)c2ncccc12 [Example 42]
Ans: 6.82

Q: Repeat for the following molecule: CC[C@@H](Nc1cc(F)c(C(=O)N[C@@H](Cc2ccc(-c3c(OC)cc(C)n(C)c3=O)c3ccccc23)C(=O)O)c(F)c1)C(F)(F)F (single isomer, unassigned) [Example 131]
Ans: 9.30

Q: Repeat for the following molecule: CC[C@@H](Nc1cc(F)c(C(=O)N[C@@H](Cc2ccc(-c3c(C)cc(C)n(C)c3=O)c3ccccc23)C(=O)O)c(F)c1)C(F)(F)F (single isomer, unassigned) [Example 132]
Ans: 7.86
